Source: the supplement of paper PMC9732359

Assay: protein stability index of a GFP-peptide fusion (yeast GPS) (PSI 1-4); higher = more stable; sorted into four equal gates, so the index is relative within each strain
Conditions: doa10∆
metric.name: protein stability index
I only need the number, thanks.

Known protein stability index results, listed for orientation:
{"residue.sequence": "KSLKNNFYRPLLRSVLV [YML103C/NUP188]", "protein stability index": 1.94}
{"residue.sequence": "NNNINENELFNDRKQTT [SSN2]", "protein stability index": 2.71}
{"residue.sequence": "GYKSTVKSLRQGKSKLI [RPL30]", "protein stability index": 1.31}
{"residue.sequence": "QRVCLRSDSYMLHKVLE [RPT6]", "protein stability index": 2.84}

Query: Query (sequence): TTSEATANDRQINNVHL [RPN4] ; field requested: protein stability index
Response: 2.97

Query: Recorded protein stability index for TLSNGLIASHYGVSFFT [BRR2] , please?
Response: 2.74

Query: Bench note: what protein stability index did KRVTKVKRLLFTIRGFK [MTW1] show?
Response: 2.34

Query: Could you tell me which protein stability index is on file for TNIRRIIQDNISPRLVV [RRP46] ?
Response: 1.58

Query: # input sequence: KNATDLQQAKLRESEIS [SMC3] ; wanted: its protein stability index
Response: 3.17

Query: Given the entry WRQFGNRMQISPDQMRN [GRR1] , report its measured protein stability index.
Response: 3.07

Query: Can you share its protein stability index? I mean this sequence: KNSSVSSLMNGLGYVFE [SRB5]
Response: 3.06

Query: Which protein stability index value belongs to ISQKLTNVNVKIKDVQQ [SMC3] ?
Response: 1.97

Query: Return reported protein stability index; argument: PIKNRKNDTHYLLPDDF [BRN1]
Response: 2.98

###

Experiment: protein stability index of a GFP-peptide fusion (yeast GPS) (PSI 1-4); higher = more stable; sorted into four equal gates, so the index is relative within each strain
Details: doa10∆
# protein stability index annotations
# print the numeric value only

{"residue.sequence": "AAQTLLQMDYKDDMKVD [PRE9]", "protein stability index": 3.3}
{"residue.sequence": "NVNSRNQLVEPNRIKLS [SRB5]", "protein stability index": 2.29}
{"residue.sequence": "PSSEVYSPIEKESPWKI [RRP6]", "protein stability index": 2.87}
{"residue.sequence": "SLSDNDLAVCATIIGII [ECM29]", "protein stability index": 2.71}
{"residue.sequence": "WVKKFKWAGIKTRKFVF [CYT1]", "protein stability index": 1.14}
{"residue.sequence": "SDSEDSDAKEQHQSLSR [ESC2]", "protein stability index": 2.81}
{"residue.sequence": "KYNRYEKRHKNVPVHVS [RPS11A]", "protein stability index": 1.61}
{"residue.sequence": "TITIKSYHLWPSFTDEQ [PRP8]", "protein stability index": 2.32}
{"residue.sequence": "KAFKICEAAVEISKKDF [SIR3]", "protein stability index": 3.19}
{"residue.sequence": "STTEHINIDDLLYELTA [YJL039C/NUP192]", "protein stability index": 2.82}

Query: So what's the measured protein stability index for this one? RFVLSDDYSNLKREERQ [SMC3]
Response: 2.27

Query: State the recorded protein stability index for this entry: SRPASYGYFSVGKRVPI [SIR4]
Response: 2.31

Query: protein stability index for DNYFNLQLNEAEEFVAG [SMX3] ?
Response: 2.76

###

protein stability index for assorted sequences
Experiment: protein stability index of a GFP-peptide fusion (yeast GPS) (PSI 1-4); higher = more stable; sorted into four equal gates, so the index is relative within each strain
Details: ubr1∆
Write the number on its own, no unit after it.

{"residue.sequence": "MAQRTLKNKYESYDAAL [FAS2]", "protein stability index": 3.06}
{"residue.sequence": "QIYTQRAYMRPLGVILT [SCL1]", "protein stability index": 1.64}
{"residue.sequence": "EINNLIQLPASLAATYS [ARP9]", "protein stability index": 1.65}
{"residue.sequence": "SDIISMLQISDDNEMTR [RRI2]", "protein stability index": 2.87}
{"residue.sequence": "FEEWIKMATDNKINSRN [BRN1]", "protein stability index": 3.7}

Query: Give its protein stability index value. Item: SYFYRRIHVNPSYYGVR [BRR2]
Response: 1.76

Query: For the sequence shown here, TPRGNHWMGSSVSGSPR [YMR129W/POM152] , give the reported protein stability index.
Response: 3.13

Query: Need protein stability index, item KEASQEDDNNNVEKPSS [YLR335W/NUP2]
Response: 3.18

###

Experiment: protein stability index of a GFP-peptide fusion (yeast GPS) (PSI 1-4); higher = more stable; sorted into four equal gates, so the index is relative within each strain
Settings: pdr5∆
Lab note: compare protein stability index against 3. Equal or greater, write YES. Smaller, write NO.

Query: Determine whether measured protein stability index meets or exceeds 3 for TDAMTESQPKQTGTRRN [MCD1]
Response: YES

Query: In plain terms: is recorded protein stability index at least 3 for VLITDHIEKLENEFVVL [CDC53] ?
Response: NO

Query: hey, is protein stability index for this one >= 3? DSVILASSKAVTRGISV [PRE1]
Response: NO

Query: Kindly determine if protein stability index recorded for LFLRGDSVIVVLKTPVE [SMD2] is above or exactly 3.
Response: NO

Query: Decide: protein stability index of MQNSKVESVCQKLDILV [SMC4] >= 3?
Response: NO

Query: hey, is protein stability index for this one >= 3? FRTDMLQVADKFFRVKY [SMC3]
Response: NO

Query: hey, is protein stability index for this one >= 3? GSLARAGKVKSQTPKVE [RPS30A]
Response: NO

###

Catalogue of protein stability index readings, one per entry.
Experiment: protein stability index of a GFP-peptide fusion (yeast GPS) (PSI 1-4); higher = more stable; sorted into four equal gates, so the index is relative within each strain
Conditions: san1∆
Answer with a number only.

Here is how some sequences turned out for protein stability index.
{"residue.sequence": "KPLGLDRYGNRYFWLDH [ITC1]", "protein stability index": 2.85}
{"residue.sequence": "IDGKVIQAGKFDNKSTS [SNF2]", "protein stability index": 1.9}
{"residue.sequence": "DETKGFDDNDSGNNYND [MED2]", "protein stability index": 3.13}
{"residue.sequence": "TKQIQSVRIDGRKVLQK [SIR4]", "protein stability index": 2.03}
{"residue.sequence": "EVSGENVVEADLKRFVD [QCR2]", "protein stability index": 3.36}

Could you now consider this next sequence?
Query: Would you mind telling me what protein stability index value was observed for LFHFEEDEGEELTDEYL [PRP8] ?
Response: 3.44

###

Test: protein stability index of a GFP-peptide fusion (yeast GPS) (PSI 1-4); higher = more stable; sorted into four equal gates, so the index is relative within each strain
Details: pdr5∆
Values of protein stability index greater than or equal to 2 map to Criterion met; values below map to Criterion not met.

{"residue.sequence": "IYYDSYIHLAYSRSVDK [SSN2]", "assigned.label": "Criterion met"}

Query: Say whether HLAICLDIINPGSVEEV [YDL116W/NUP84] shows protein stability index of 2 or more.
Response: Criterion met

Query: Determine whether measured protein stability index meets or exceeds 2 for WLEEYHPKLIKNKSGKI [FAS1]
Response: Criterion not met

Query: Can SSKTSQPKPLFSFGKSD [YOR098C/NUP1] be said to have protein stability index at or above 2?
Response: Criterion met

Query: Would you say LKAVTVEAGMIALRNGQ [RPT5] shows protein stability index at minimum 2?
Response: Criterion met

Query: Given TSPTMPDYYVSILSFVD [RPT2] , state whether its protein stability index is at least 2.
Response: Criterion met

###

Experiment: protein stability index of a GFP-peptide fusion (yeast GPS) (PSI 1-4); higher = more stable; sorted into four equal gates, so the index is relative within each strain
Conditions: pdr5∆
Attribute: protein stability index
The answer should be a number; do not append a unit.

{"residue.sequence": "TQTFNGSIFTHETTFMT [YML031W/NDC1]", "metric.name": "protein stability index", "numeric.value": 2.79}
{"residue.sequence": "IGTANYKPLIEERMGQI [SMC4]", "metric.name": "protein stability index", "numeric.value": 3.53}
{"residue.sequence": "GLVKQHLDSFNYFVDTD [RET1]", "metric.name": "protein stability index", "numeric.value": 3.05}
{"residue.sequence": "QRETMKERKLRENIAML [SMC1]", "metric.name": "protein stability index", "numeric.value": 3.01}
{"residue.sequence": "TLLKNLRKKLNFKLCQA [YJR042W/NUP85]", "metric.name": "protein stability index", "numeric.value": 2.12}

Query: What value of protein stability index has been recorded for this entry: QGSMSERPPYILNSYGV [SIR2]
Response: 3.03

Query: I would be grateful if you could share the reported protein stability index for VSKFYDKINQLSVVKYL [RPN9] .
Response: 1.75

Query: Name the reported protein stability index value associated with the sequence SNYDWLFQLLNALTVGD [RPN9]
Response: 2.52

Query: Report protein stability index for SNEEKEKIKMKLKQGQK [GAL11] please.
Response: 3.37

Query: Reported protein stability index, sequence IDAMKAVAEAYNNRSLL [RPN6] : ____
Response: 2.07
